# TARGET DESC: Human rhB7-H3 (human) (UniProt Q5ZPR3)
# ASSAY EXPLANATION: SPR (Biacore 8K/T200), Fab-SASA captured on immobilised albumin, B7-H3 as analyte, 1:1 model
Would you mind telling me the reported koff of each entry?

{"BINDER": "Chimeric Fab-SASA (Fab, V domains shown) VH: EVQLQQSGPELVKPGASVKMSCKASGYTFTSYVMHWVRQSPGQGLEGIGYINSYSDGTKYNEKFKGKATLTSDKSSSTAYMELSGLTSEDSAVYYCARWGGLGNGAMDYWGQGTSVTVSS VL: QIVLTQSPAIMSASPGEKVTMTCSVSSSVNYMHWYQQKSGTSPKRWIYDTSKLASGVPARFSASGSGTSYSLTISSMEAEDAATYYCQQWTSNPLTFGAGTKLELKR", "ASSAY VALUE": "0.000131 s⁻¹"}
{"BINDER": "Grafted Fab-SASA (Fab, V domains shown) VH: QVQLVQSGAEVKKPGASVKVSCKASGYTFTSYVMHWVRQAPGQRLEWMGYINSYSDGTKYNEKFKGRVTITRDTSASTAYMELSSLRSEDTAVYYCARWGGLGNGAMDYWGQGTLVTVSS VL: EIVLTQSPATLSLSPGERATLSCSVSSSVNYMHWYQQKPGQAPRLLIYDTSKLASGIPARFSGSGSGTDFTLTISSLEPEDFAVYYCQQWTSNPLTFGQGTKLEIKR", "ASSAY VALUE": "0.0117 s⁻¹"}
{"BINDER": "AHF15945 Fab-SASA (Fab, V domains shown) VH: QVQLVQSGAEVKKPGASVKVSCKASGYTFTSYVMHWVRQAPGQRLEWMGYINSYSDGTKYNEKFKGRVTITSDTSASTAYMELSSLRSEDTAVYYCARWGGLGNGAMDYWGQGTLVTVSS VL: EIVLTQSPATLSLSPGERATLSCSVSSSVNYMHWYQQKPGQAPRRLIYDTSKLASGIPARFSGSGSGTDYTLTISSLEPEDFAVYYCQQWTSNPLTFGQGTKLEIK", "ASSAY VALUE": "0.000244 s⁻¹"}

Continue with the binder presented below.
koff for AHF15948 Fab-SASA (Fab, V domains shown) VH: QVQLVQSGAEVKKPGASVKVSCKASGYTFTSYVMHWVRQAPGQRLEWMGYINSYSDGTKYNEKFKGRVTITRDTSASTAYMELSSLRSEDTAVYYCARWGGLGNGAMDYWGQGTLVTVSS VL: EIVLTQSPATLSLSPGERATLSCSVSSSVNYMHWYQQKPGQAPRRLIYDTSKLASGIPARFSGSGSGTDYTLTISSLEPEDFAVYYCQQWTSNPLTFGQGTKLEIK is 9.35e-05 s⁻¹

Just for reference, patent US20260224701A1 is where these values come from.
